Listing of entries alongside the reported melting point.

1. Nc1nnc(C2Cc3ccccc3O2)o1 (stereo not drawn) :: 198 to 200 °C
2. Cc1csc(=O)n1CC(=O)O :: 193 to 195 °C
3. O=[N+]([O-])c1ncn(CCO)n1 :: 76 to 78 °C
4. Cc1onc(CC(=O)O)c1C#N :: 59 to 61 °C
5. O=C(CCl)NCc1cccc(C(=O)NC2CC2)c1 :: 137 to 139 °C
6. NC(=S)NC1CCOCC1 :: 228 to 230 °C
7. CN(C)c1c(N)n(C)c(=O)[nH]c1=O :: 161 to 163 °C
8. CC(=O)c1cnn(-c2ccc(F)cc2)c1C :: 87 to 89 °C
9. CC(=O)N1CSCC1C(=O)O (stereo not drawn) :: 111 to 113 °C
10. COc1ccc(C(=O)CCC(=O)O)c(Cl)c1 :: 165 to 167 °C

Entry under test: "O=C(O)c1ccc(-c2noc(C(F)(F)F)n2)cc1" . Its melting point was 249 to 251 °C

Entry under test: "O=C(O)c1c[nH]c2ccccc2c1=O" . Its melting point was 250 to 252 °C

----------
Listing of entries alongside the reported melting point.

Examples from the recorded data:
1. O=C(O)c1c(F)ccc([N+](=O)[O-])c1F :: 92 to 96 °C
2. COC(=O)CCCCCNC(=O)c1ccsc1 :: 77 to 79 °C
3. CCCC1(C)NC(=O)NC1=O (stereo not drawn) :: 123 to 125 °C
4. COc1ccc(C(=O)O)cc1S(=O)(=O)NCc1ccc(Cl)cc1 :: 230 to 232 °C

Entry under test: "Cc1cnc2c(c1)NCCO2" . Its melting point was 109 to 111 °C

Entry under test: "O=C(O)CN(Cc1cccnc1)c1ccccc1" . Its melting point was 136 to 138 °C

Entry under test: "Nc1ccc(C(=O)O)c(I)c1" . Its melting point was 160 to 162 °C

Entry under test: CC(Cl)C(=O)NCc1ccccc1F (stereo not drawn) . Its melting point was 66 to 68 °C

Entry under test: "O=C(O)CNc1ccc(C(F)(F)F)cn1" . Its melting point was 134 to 136 °C

Entry under test: "COc1ccc(Nc2ccccc2)cc1" . Its melting point was 104 to 106 °C

----------
Listing of entries alongside the reported melting point.

Examples from the recorded data:
1) COc1nc(C)cc(=O)[nH]1 :: 199 to 201 °C
2) CS(=O)(=O)c1cccc(N)c1 :: 49 to 51 °C
3) CC(C)NC(=O)c1cccc(CN)c1 :: 105 to 107 °C

Entry under test: "CN(C)c1ccc(C=O)s1" . Its melting point was 65 to 67 °C

Entry under test: "O=C(O)c1ccc(-c2ccccc2)o1" . Its melting point was 153 to 155 °C

Entry under test: COc1ccc(O)c(C(C)N)c1 (centres undefined) . Its melting point was 123 to 125 °C

Entry under test: "O=C(O)c1cnn(-c2ccccc2)c1C1CC1" . Its melting point was 173 to 175 °C

Entry under test: "COc1ccc(-c2cc(C(=O)O)c3ccccc3n2)cc1OC" . Its melting point was 234 to 236 °C

Entry under test: "NC(=O)Cc1noc2ccccc12" . Its melting point was 147 to 149 °C

Entry under test: "CN1CCCCC/C1=N/S(=O)(=O)c1ccc(N)cc1" . Its melting point was 223 to 225 °C

Entry under test: CCOc1ccccc1N1CC(C(=O)O)CC1=O (centres undefined) . Its melting point was 104 to 108 °C

Entry under test: "O=S(=O)(Cl)c1c[nH]cn1" . Its melting point was 164 to 166 °C

Entry under test: "Cc1cccc(OCCNc2ccc(F)cc2N)c1" . Its melting point was 76 to 78 °C

Entry under test: "O=C(O)CCNc1ccccc1[N+](=O)[O-]" . Its melting point was 144 to 146 °C

Entry under test: "Cc1cc(Br)cc2c1NC(=O)C2=O" . Its melting point was 298 to 300 °C

----------
Listing of entries alongside the reported melting point.

1) Nc1cc(C(F)(F)F)ccc1Oc1ccc(Br)cc1 :: 19 to 21 °C
2) O=C(Nc1ccccc1C(F)(F)F)OCC(F)(F)F :: 68 to 70 °C
3) N#CCN1C(=O)c2ccccc2C1=O :: 125 to 127 °C

Entry under test: "CC(=O)c1ccc(CC(=O)O)cc1" . Its melting point was 109 to 111 °C

Entry under test: "Cc1cc(O)n2ncnc2c1" . Its melting point was 254 to 256 °C

Entry under test: "NNC(=O)CCSc1ccc(F)cc1" . Its melting point was 98 to 100 °C

----------
Listing of entries alongside the reported melting point.

Examples from the recorded data:
1. CS(=O)(=O)Cc1nc2ccccc2n1CC(=O)O :: 249 to 251 °C
2. COc1ccc(Cc2nnc(S)o2)cc1OC :: 202 to 204 °C
3. Cc1cc2sc(N)nc2s1 :: 117 to 119 °C
4. NC(=O)c1c(NC(=O)CCC(=O)O)sc2c1CCC2 :: 231 to 233 °C
5. CNS(=O)(=O)c1c(C)noc1C :: 70 to 72 °C
6. NNC(=O)C(=O)NCc1ccco1 :: 158 to 160 °C
7. COc1cc(N)c(C(=O)O)c(Br)c1 :: 134 to 136 °C
8. O=C(O)CCCNC(=O)c1ccc(Cl)cc1 :: 108 to 110 °C
9. c1ccc2oc(N3CCNCC3)nc2c1 :: 74 to 76 °C
10. O=C(CCl)NCCc1cccs1 :: < 17 °C

Next:
Entry under test: "CC1=C(C#N)CCC(=O)N1" . Its melting point was 201 to 203 °C

----------
Listing of entries alongside the reported melting point.

Examples from the recorded data:
1) CC(C)(C)OC(=O)N1CCC(CC(=O)O)(C(=O)O)C1 (configuration not stated) :: 180 to 182 °C
2) CC(C)(C)OC(=O)N1CCCCCC1C(N)=NO (configuration not stated) :: 150 to 152 °C
3) Cc1nc(-c2ccc(Br)cc2Cl)n[nH]1 :: 179 to 181 °C
4) CC(C)(C)CNC(=O)c1ccc(C(=O)O)cn1 :: 239 to 241 °C
5) CSc1ccc(CC(=O)O)cc1 :: 97 to 98 °C
6) CCCc1ccccc1NC(N)=S :: 116 to 118 °C
7) COc1ccccc1OCc1ccccc1N :: 55 to 57 °C
8) Cn1ccc(C(=O)N2CCCC(C(=O)O)C2)cc1=O (configuration not stated) :: 208 to 210 °C
9) O=[N+]([O-])C=Cc1ccc(SC(F)(F)F)cc1 :: 136 to 138 °C
10) CC(=O)c1cc2ccccc2[nH]1 :: 149 to 151 °C

Entry under test: CC(CN(C)C(=O)OC(C)(C)C)C(N)=NO (configuration not stated) . Its melting point was 124 to 126 °C

Entry under test: "CCc1ccc(C(=O)c2ccc([N+](=O)[O-])cc2)o1" . Its melting point was 76 to 78 °C

Entry under test: "O=C(O)CCCNC(=O)c1ccccc1" . Its melting point was 87 to 89 °C

Entry under test: "N#Cc1ccc(N2CCN(c3ccccn3)CC2)nc1" . Its melting point was 165 to 167 °C

----------
Listing of entries alongside the reported melting point.

1) NCc1ccc(C(N)=O)nc1 :: 146 to 148 °C
2) COC(=O)c1c(C)n(C)c2ccc(O)cc12 :: 223 to 225 °C
3) CC(C)C(NC1=NS(=O)(=O)c2ccccc21)C(=O)O (stereo not given) :: 234 to 236 °C
4) Nc1ncc(Cc2ccccc2F)s1 :: 97 to 99 °C
5) Cc1cc(CCC(=O)O)ccc1Br :: 89 to 91 °C

Entry under test: "COc1ccc(F)cc1[N+](=O)[O-]" . Its melting point was 62 to 64 °C

----------
measurement.label: melting point

1. O=C(O)CCNC(=O)N1CCc2ccccc2C1 :: 144 to 146 °C
2. Cc1sc(N)nc1-c1ccc(F)cc1 :: 122 to 124 °C
3. O=C(O)c1nn(-c2ccccc2F)cc1Br :: 235 to 237 °C
4. Cc1ccc(-n2nc(C(=O)O)cc2C)cc1 :: 149 to 151 °C
5. CC(C)(C)c1cc([N+](=O)[O-])c(O)c(C(C)(C)C)c1 :: 58 to 60 °C

Entry under test: "CCOC(=O)c1cnn2c(O)cc(CCl)nc12" . Its melting point was 215 to 217 °C

Entry under test: "Cc1nc(COc2ccccc2C(=O)O)no1" . Its melting point was 89 to 91 °C

Entry under test: c1cc2[nH]ncc2cc1NC1CN2CCC1CC2 (stereo not drawn) . Its melting point was 192 to 194 °C

Entry under test: "CCCn1c(=O)[nH]c2ccccc21" . Its melting point was 96 to 100 °C

Entry under test: "NC(=O)c1cncn1-c1ccccc1" . Its melting point was 182 to 184 °C

Entry under test: Cc1ccc(C(N)CC(=O)O)o1 (stereo not drawn) . Its melting point was 199 to 201 °C

Entry under test: "O=C(O)CN1C(=O)COc2ccc(S(=O)(=O)Cl)cc21" . Its melting point was 159 to 161 °C

Entry under test: "Cn1c(=O)cc(N)n(Cc2ccccc2)c1=O" . Its melting point was 95 to 99 °C

Cited source for all entries: a melting point compilation (Tetko et al.)
